Values from patent US20260248892A1

In this section we review reported hIR-A phosphorylation [EC50 nM] mean values for a set of binders.
target: human insulin receptor isoform A (human, UniProt P06213-2 28-1370); assay: cell-based or functional assay
Sequence (P06213 other isoform, or with tags, fused parts or gaps): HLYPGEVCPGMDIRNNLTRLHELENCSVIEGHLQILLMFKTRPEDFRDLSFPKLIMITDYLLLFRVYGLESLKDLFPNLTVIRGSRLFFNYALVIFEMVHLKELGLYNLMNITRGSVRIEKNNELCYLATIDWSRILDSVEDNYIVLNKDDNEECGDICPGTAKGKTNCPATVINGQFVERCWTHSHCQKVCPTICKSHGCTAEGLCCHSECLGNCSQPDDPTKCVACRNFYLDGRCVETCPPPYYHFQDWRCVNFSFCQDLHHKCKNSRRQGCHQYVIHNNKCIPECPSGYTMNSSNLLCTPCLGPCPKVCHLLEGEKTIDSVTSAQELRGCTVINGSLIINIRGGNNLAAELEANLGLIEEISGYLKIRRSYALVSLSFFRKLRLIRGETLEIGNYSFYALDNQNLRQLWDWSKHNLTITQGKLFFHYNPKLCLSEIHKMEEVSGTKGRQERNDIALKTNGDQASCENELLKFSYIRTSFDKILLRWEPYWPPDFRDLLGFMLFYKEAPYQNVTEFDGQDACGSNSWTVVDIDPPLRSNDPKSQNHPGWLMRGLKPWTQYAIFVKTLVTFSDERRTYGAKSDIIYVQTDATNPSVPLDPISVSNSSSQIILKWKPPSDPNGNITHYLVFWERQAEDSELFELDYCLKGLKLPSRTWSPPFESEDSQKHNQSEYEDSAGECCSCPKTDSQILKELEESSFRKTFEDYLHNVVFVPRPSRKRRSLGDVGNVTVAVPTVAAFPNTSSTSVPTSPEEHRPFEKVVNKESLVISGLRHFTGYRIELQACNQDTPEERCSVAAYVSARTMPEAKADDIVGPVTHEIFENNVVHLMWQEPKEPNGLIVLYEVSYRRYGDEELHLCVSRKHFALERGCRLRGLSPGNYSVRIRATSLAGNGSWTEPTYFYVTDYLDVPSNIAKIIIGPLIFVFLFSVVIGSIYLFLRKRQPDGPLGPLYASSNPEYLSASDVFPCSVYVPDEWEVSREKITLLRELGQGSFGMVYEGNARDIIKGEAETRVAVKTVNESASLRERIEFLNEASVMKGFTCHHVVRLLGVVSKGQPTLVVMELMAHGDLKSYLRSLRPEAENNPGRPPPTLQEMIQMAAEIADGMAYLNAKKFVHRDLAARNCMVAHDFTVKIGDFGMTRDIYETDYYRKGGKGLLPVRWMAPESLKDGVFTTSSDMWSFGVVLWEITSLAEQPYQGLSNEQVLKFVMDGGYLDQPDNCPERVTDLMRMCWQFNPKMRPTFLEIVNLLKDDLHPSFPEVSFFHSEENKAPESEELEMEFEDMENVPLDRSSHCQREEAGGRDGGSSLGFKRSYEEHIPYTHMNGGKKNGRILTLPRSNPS
Respond numerically; units are nM and should not be typed.

scl-Fc fusion protein INS009 (Fc fusion) SFVNQHLCGSHLVEALELVCGERGFHYTPKTGSYPGGVGIVEQCCTSICSLEQLENYCGGEAEDLQVGQVELGGGPGAGSLQPEGSLQGGPSVFLFPPKPKDTLMISRTPEVTCVVVDVSHEDPEVKFNWYVDGVEVHNAKTKPREEQYNSTYRVVSVLTVLHQDWLNGKEYKCKVSNKALPAPIEKTISKAKGQPREPQVYTLPPSRDELTKNQVSLTCLVKGFYPSDIAVEWESNGQPENNYKTTPPVLDSDGSFFLYSKLTVDKSRWQQGNVFSCSVMHEALHNHYTQKSLSLSPGGGGGSAESKYGPPCPPCPA : 332

Pending binder:
Recorded hIR-A phosphorylation [EC50 nM] mean for scl-Fc fusion protein INS015 (Fc fusion) SFVNQHLCGSHLVEALHLVCGERGFHYTPKTEEYPGDVGIVEQCCTSICSLSQLENYCGGEAEDLQVGQVELGGGPGAGSLQPEGSLQGGPSVFLFPPKPKDTLMISRTPEVTCVVVDVSHEDPEVKFNWYVDGVEVHNAKTKPREEQYNSTYRVVSVLTVLHQDWLNGKEYKCKVSNKALPAPIEKTISKAKGQPREPQVYTLPPSRDELTKNQVSLTCLVKGFYPSDIAVEWESNGQPENNYKTTPPVLDSDGSFFLYSKLTVDKSRWQQGNVFSCSVMHEALHNHYTQKSLSLSPGGGGGSAESKYGPPCPPCPA , please?
211
